Where these numbers come from: ChEMBL document CHEMBL5126595

Biological target: ALK tyrosine kinase receptor (Homo sapiens, UniProt Q9UM73, L1196M)
Sequence (Q9UM73 19-1620 L1196M limits assumed): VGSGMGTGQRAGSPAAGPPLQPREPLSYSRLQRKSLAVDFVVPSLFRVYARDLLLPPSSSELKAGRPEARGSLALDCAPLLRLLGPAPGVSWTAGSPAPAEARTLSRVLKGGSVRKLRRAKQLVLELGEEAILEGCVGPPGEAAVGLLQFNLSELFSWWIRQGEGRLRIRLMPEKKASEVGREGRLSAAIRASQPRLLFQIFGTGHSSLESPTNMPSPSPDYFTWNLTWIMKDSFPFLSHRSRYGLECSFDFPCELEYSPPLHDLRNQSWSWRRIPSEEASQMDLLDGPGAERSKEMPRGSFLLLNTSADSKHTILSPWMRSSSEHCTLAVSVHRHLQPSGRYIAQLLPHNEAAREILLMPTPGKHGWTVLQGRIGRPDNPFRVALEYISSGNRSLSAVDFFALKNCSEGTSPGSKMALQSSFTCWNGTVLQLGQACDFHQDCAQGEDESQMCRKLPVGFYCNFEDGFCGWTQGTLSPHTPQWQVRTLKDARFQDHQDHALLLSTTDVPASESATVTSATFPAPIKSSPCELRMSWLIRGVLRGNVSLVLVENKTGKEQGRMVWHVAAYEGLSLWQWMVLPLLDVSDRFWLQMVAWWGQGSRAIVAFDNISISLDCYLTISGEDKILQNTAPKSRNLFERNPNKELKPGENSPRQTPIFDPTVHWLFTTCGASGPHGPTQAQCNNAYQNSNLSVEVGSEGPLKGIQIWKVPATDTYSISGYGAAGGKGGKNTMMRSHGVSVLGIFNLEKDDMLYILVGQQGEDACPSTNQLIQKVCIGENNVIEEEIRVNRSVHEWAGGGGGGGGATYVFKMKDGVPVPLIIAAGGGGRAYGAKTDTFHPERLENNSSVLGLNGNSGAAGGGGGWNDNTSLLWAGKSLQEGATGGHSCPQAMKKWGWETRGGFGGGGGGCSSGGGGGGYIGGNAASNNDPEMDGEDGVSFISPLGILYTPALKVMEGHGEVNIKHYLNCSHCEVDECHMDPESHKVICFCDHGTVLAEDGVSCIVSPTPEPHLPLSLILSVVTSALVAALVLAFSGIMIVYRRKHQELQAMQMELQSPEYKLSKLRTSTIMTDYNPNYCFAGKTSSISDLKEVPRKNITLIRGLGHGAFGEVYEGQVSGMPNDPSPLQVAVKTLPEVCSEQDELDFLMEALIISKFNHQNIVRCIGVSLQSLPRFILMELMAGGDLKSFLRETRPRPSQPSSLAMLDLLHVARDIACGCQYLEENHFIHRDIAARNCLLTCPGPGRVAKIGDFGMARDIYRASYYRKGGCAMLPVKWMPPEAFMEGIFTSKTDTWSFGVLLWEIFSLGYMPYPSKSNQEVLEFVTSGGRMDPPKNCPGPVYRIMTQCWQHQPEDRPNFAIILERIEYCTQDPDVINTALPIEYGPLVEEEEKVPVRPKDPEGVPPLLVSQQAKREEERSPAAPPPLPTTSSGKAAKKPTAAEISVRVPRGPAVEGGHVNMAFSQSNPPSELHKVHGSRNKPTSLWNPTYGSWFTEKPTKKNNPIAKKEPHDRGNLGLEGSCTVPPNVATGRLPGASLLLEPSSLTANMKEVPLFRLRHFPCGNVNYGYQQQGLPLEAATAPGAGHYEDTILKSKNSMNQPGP
Assay: Inhibition of N-terminal GST-tagged human ceritinib-resistant ALK L1196M mutant (1058 to 1620 residues) cytoplasmic domain expressed in baculovirus infected Sf21 cells incubated for 1 hrs in the presence of ATP by mobility shift assay
pIC50: −log10 of the molar value.
Measured pIC50 of individual entries
MEASURED PARAMETER: pIC50

* CNC(=O)c1ccccc1Nc1nc(Nc2ccc3c(C(=O)OC)c(C)[nH]c3c2)ncc1Cl | 8.47
* CNC(=O)c1ccccc1Nc1nc(Nc2ccc3c(C(=O)N4CCC(O)CC4)c(C)[nH]c3c2)ncc1Cl | 7.86
* Cc1[nH]c2cc(Nc3ncc(Cl)c(Nc4ccccc4NS(C)(=O)=O)n3)ccc2c1C(=O)N1CCC(C)CC1 | 7.90
* CNC(=O)c1ccccc1Nc1nc(Nc2ccc3c(C(=O)N4CCC(C)CC4)c(C)[nH]c3c2)ncc1Cl | 8.32
* CNC(=O)c1ccccc1Nc1nc(Nc2ccc3c(C(=O)N(C)C)c(C)[nH]c3c2)ncc1Cl | 8.43
* Cc1[nH]c2cc(Nc3ncc(Cl)c(Nc4ccccc4NS(C)(=O)=O)n3)ccc2c1C(=O)N1CCOCC1 | 8.18
* COC(=O)c1c(C)[nH]c2cc(Nc3ncc(Cl)c(Nc4ccccc4NS(C)(=O)=O)n3)ccc12 | 8.49

* * *

Assay: Oral bioavailability in Sprague-Dawley rat at 10 mg/kg by LC-MS/MS analysis
Type: ADME, organism-based
Details: in vivo
MEASURED PARAMETER: bioavailability

- CNC(=O)c1ccccc1Nc1nc(Nc2ccc3c(C(=O)N(C)C)c(C)[nH]c3c2)ncc1Cl: 38.2%

* * *

Test: MRT in Sprague-Dawley rat at 2 mg/kg, iv by LC-MS/MS analysis
Format: ADME, organism-based
Details: in vivo
MEASURED PARAMETER: MRT

* CNC(=O)c1ccccc1Nc1nc(Nc2ccc3c(C(=O)N(C)C)c(C)[nH]c3c2)ncc1Cl | 3.5 h

* * *

Test system: NCI-H2228
Assay: Antiproliferative activity against EML4-ALK positive human NCI-H2228 cells assessed as inhibition of cell growth incubated for 72 hrs by MTT assay
Format: functional, cell-based
Conditions: NCI-H2228, 72 h
Flag rule - IC50 less than 0.3 µM flags yes (1); the remaining entries get no (0).

- Cc1[nH]c2cc(Nc3ncc(Cl)c(Nc4ccccc4NS(C)(=O)=O)n3)ccc2c1C(=O)N1CCCCC1: yes (1)
- Cc1[nH]c2cc(Nc3ncc(Cl)c(Nc4ccccc4NS(C)(=O)=O)n3)ccc2c1C(=O)N1CCCC1: yes (1)
- CCCc1[nH]c2cc(Nc3ncc(Cl)c(Nc4ccccc4C(=O)NC)n3)ccc2c1C(=O)OCC: no (0)
- CCN1CCN(C(=O)c2c(C)[nH]c3cc(Nc4ncc(Cl)c(Nc5ccccc5NS(C)(=O)=O)n4)ccc23)CC1: yes (1)
- Cc1[nH]c2cc(Nc3ncc(Cl)c(Nc4ccccc4NS(C)(=O)=O)n3)ccc2c1C(=O)N1CCSCC1: no (0)
- CCOC(=O)c1c(C)[nH]c2cc(Nc3ncc(Cl)c(Nc4ccccc4NS(C)(=O)=O)n3)ccc12: yes (1)
- CNC(=O)c1ccccc1Nc1nc(Nc2ccc3c(C(=O)OC)c(C)[nH]c3c2)ncc1Cl: yes (1)
- CNC(=O)c1ccccc1Nc1nc(Nc2ccc3c(C(=O)N4CCC(O)CC4)c(C)[nH]c3c2)ncc1Cl: yes (1)

* * *

Test: MRT in Sprague-Dawley rat at 10 mg/kg, po by LC-MS/MS analysis
Format: ADME, organism-based
Conditions: in vivo
MEASURED PARAMETER: MRT (h)

- CNC(=O)c1ccccc1Nc1nc(Nc2ccc3c(C(=O)N(C)C)c(C)[nH]c3c2)ncc1Cl: 6.6

* * *

Test: AUC (0 to infinity) in Sprague-Dawley rat at 2 mg/kg, iv by LC-MS/MS analysis
Format: ADME, organism-based
Parameters: time infinity, dose 2 mg/kg, route iv
Settings: in vivo
MEASURED PARAMETER: AUC(0-inf) (ng·h/mL)

* CNC(=O)c1ccccc1Nc1nc(Nc2ccc3c(C(=O)N(C)C)c(C)[nH]c3c2)ncc1Cl | 922

* * *

So I've got IC50 readings for ALK tyrosine kinase receptor (Homo sapiens, UniProt Q9UM73), take a look.
MEASURED PARAMETER: IC50 (nM)

* CNC(=O)c1ccccc1Nc1nc(Nc2ccc3c(C(=O)OC)c(C)[nH]c3c2)ncc1Cl | 3
* CNC(=O)c1ccccc1Nc1nc(Nc2ccc3c(C(=O)N(C)C)c(C)[nH]c3c2)ncc1Cl | 2.3
* Cc1[nH]c2cc(Nc3ncc(Cl)c(Nc4ccccc4NS(C)(=O)=O)n3)ccc2c1C(=O)N1CCC(C)CC1 | 8.3
* CNC(=O)c1ccccc1Nc1nc(Nc2ccc3c(C(=O)N4CCC(C)CC4)c(C)[nH]c3c2)ncc1Cl | 3.9
* CNC(=O)c1ccccc1Nc1nc(Nc2ccc3c(C(=O)N4CCC(O)CC4)c(C)[nH]c3c2)ncc1Cl | 10.2
* COC(=O)c1c(C)[nH]c2cc(Nc3ncc(Cl)c(Nc4ccccc4NS(C)(=O)=O)n3)ccc12 | 3.8
* Cc1[nH]c2cc(Nc3ncc(Cl)c(Nc4ccccc4NS(C)(=O)=O)n3)ccc2c1C(=O)N1CCOCC1 | 5.7

* * *

Assay: Metabolic stability in Sprague-Dawley rat liver microsomes assessed as parent compound remaining preincubated for 5 mins in the presence of NADPH followed by microsomal addition and measured upto 60 mins by HPLC analysis
Format: ADME, Microsome
Settings: time < 65 min, read-out: Stability
MEASURED PARAMETER: remaining at 1 h (%)

- CNC(=O)c1ccccc1Nc1nc(Nc2ccc3c(C(=O)N(C)C)c(C)[nH]c3c2)ncc1Cl: 29.7

* * *

Target: ALK tyrosine kinase receptor (Homo sapiens, UniProt Q9UM73, G1202R)
Sequence (Q9UM73 19-1620 G1202R limits assumed): as the sequence (Q9UM73 19-1620 L1196M limits assumed) above, with M1178L, G1184R counted along it
Experiment: Inhibition of N-terminal GST-tagged human ceritinib-resistant ALK G1202R mutant (1058 to 1620 residues) cytoplasmic domain expressed in baculovirus infected Sf21 cells incubated for 1 hrs in the presence of ATP by mobility shift assay
MEASURED PARAMETER: IC50 (nM)

* CNC(=O)c1ccccc1Nc1nc(Nc2ccc3c(C(=O)N(C)C)c(C)[nH]c3c2)ncc1Cl | 2.9
* CNC(=O)c1ccccc1Nc1nc(Nc2ccc3c(C(=O)OC)c(C)[nH]c3c2)ncc1Cl | 6.3
* Cc1[nH]c2cc(Nc3ncc(Cl)c(Nc4ccccc4NS(C)(=O)=O)n3)ccc2c1C(=O)N1CCC(C)CC1 | 6.5
* Cc1[nH]c2cc(Nc3ncc(Cl)c(Nc4ccccc4NS(C)(=O)=O)n3)ccc2c1C(=O)N1CCOCC1 | 5.9
* COC(=O)c1c(C)[nH]c2cc(Nc3ncc(Cl)c(Nc4ccccc4NS(C)(=O)=O)n3)ccc12 | 8.9
* CNC(=O)c1ccccc1Nc1nc(Nc2ccc3c(C(=O)N4CCC(O)CC4)c(C)[nH]c3c2)ncc1Cl | 5.3
* CNC(=O)c1ccccc1Nc1nc(Nc2ccc3c(C(=O)N4CCC(C)CC4)c(C)[nH]c3c2)ncc1Cl | 6.7

* * *

Test: Cmax in Sprague-Dawley rat at 10 mg/kg, po by LC-MS/MS analysis
Type: ADME, organism-based
Design: dose 10 mg/kg, route po
Conditions: in vivo
MEASURED PARAMETER: Cmax (ng/mL)

• CNC(=O)c1ccccc1Nc1nc(Nc2ccc3c(C(=O)N(C)C)c(C)[nH]c3c2)ncc1Cl = 346

* * *

System: NCI-H1581
Test: Antiproliferative activity against human NC-H1581 cells assessed as inhibition of cell growth incubated for 72 hrs by MTT assay
Assay type: functional, cell-based
Conditions: NCI-H1581, 72 h
pIC50: −log10 of the molar value.
Measured pIC50 of individual entries
MEASURED PARAMETER: pIC50

- CNC(=O)c1ccccc1Nc1nc(Nc2ccc3c(C(=O)N(C)C)c(C)[nH]c3c2)ncc1Cl: 6.02
- Cc1cc(Nc2ncc(Cl)c(Nc3ccccc3S(=O)(=O)C(C)C)n2)c(OC(C)C)cc1C1CCNCC1: 5.66

* * *

Test system: A549
Experiment: Antiproliferative activity against EGFR positive human A549 cells assessed as inhibition of cell growth incubated for 72 hrs by MTT assay
Type: functional, cell-based
Conditions: A549, 72 h
Flag rule - IC50 less than 3 µM flags criterion met; the remaining entries get criterion not met.

• CNC(=O)c1ccccc1Nc1nc(Nc2ccc3c(C(=O)N4CCN(CCO)CC4)c(C)[nH]c3c2)ncc1Cl = criterion not met
• CCN1CCN(C(=O)c2c(C)[nH]c3cc(Nc4ncc(Cl)c(Nc5ccccc5NS(C)(=O)=O)n4)ccc23)CC1 = criterion not met
• Cc1[nH]c2cc(Nc3ncc(Cl)c(Nc4ccccc4NS(C)(=O)=O)n3)ccc2c1C(=O)O = criterion not met
• Cc1[nH]c2cc(Nc3ncc(Cl)c(Nc4ccccc4NS(C)(=O)=O)n3)ccc2c1C(=O)NCCO = criterion not met
• Cc1[nH]c2cc(Nc3ncc(Cl)c(Nc4ccccc4NS(C)(=O)=O)n3)ccc2c1C(=O)N1CCCCC1 = criterion not met
• Cc1[nH]c2cc(Nc3ncc(Cl)c(Nc4ccccc4NS(C)(=O)=O)n3)ccc2c1C(=O)N1CCC(O)CC1 = criterion not met
• Cc1[nH]c2cc(Nc3ncc(Cl)c(Nc4ccccc4NS(C)(=O)=O)n3)ccc2c1C(=O)N1CCN(C)CC1 = criterion not met
• Cc1[nH]c2cc(Nc3ncc(Cl)c(Nc4ccccc4NS(C)(=O)=O)n3)ccc2c1C(=O)N1CCOCC1 = criterion not met
• CNC(=O)c1ccccc1Nc1nc(Nc2ccc3c(C(=O)OC)c(C)[nH]c3c2)ncc1Cl = criterion not met
• CNC(=O)c1ccccc1Nc1nc(Nc2ccc3c(C(=O)N4CCC[C@@H]4CO)c(C)[nH]c3c2)ncc1Cl = criterion not met
• Cc1[nH]c2cc(Nc3ncc(Cl)c(Nc4ccccc4NS(C)(=O)=O)n3)ccc2c1C(=O)N1CCSCC1 = criterion not met
• CCN1CCN(C(=O)c2c(C)[nH]c3cc(Nc4ncc(Cl)c(Nc5ccccc5C(=O)NC)n4)ccc23)CC1 = criterion not met
• Cc1[nH]c2cc(Nc3ncc(Cl)c(Nc4ccccc4NS(C)(=O)=O)n3)ccc2c1C(=O)N1CCCC1 = criterion met
• Cc1[nH]c2cc(Nc3ncc(Cl)c(Nc4ccccc4NS(C)(=O)=O)n3)ccc2c1C(=O)N1CCC(C)CC1 = criterion not met
• CNC(=O)c1ccccc1Nc1nc(Nc2ccc3c(C(=O)N(C)C)c(C)[nH]c3c2)ncc1Cl = criterion met
• CNC(=O)c1ccccc1Nc1nc(Nc2ccc3c(C(=O)N4CCCC4)c(C)[nH]c3c2)ncc1Cl = criterion met
• COC(=O)c1c(C)[nH]c2cc(Nc3ncc(Cl)c(Nc4ccccc4NS(C)(=O)=O)n3)ccc12 = criterion met
